Biological target: Serine/threonine-protein kinase B-raf (Homo sapiens, UniProt P15056)
Sequence (P15056 whole entry): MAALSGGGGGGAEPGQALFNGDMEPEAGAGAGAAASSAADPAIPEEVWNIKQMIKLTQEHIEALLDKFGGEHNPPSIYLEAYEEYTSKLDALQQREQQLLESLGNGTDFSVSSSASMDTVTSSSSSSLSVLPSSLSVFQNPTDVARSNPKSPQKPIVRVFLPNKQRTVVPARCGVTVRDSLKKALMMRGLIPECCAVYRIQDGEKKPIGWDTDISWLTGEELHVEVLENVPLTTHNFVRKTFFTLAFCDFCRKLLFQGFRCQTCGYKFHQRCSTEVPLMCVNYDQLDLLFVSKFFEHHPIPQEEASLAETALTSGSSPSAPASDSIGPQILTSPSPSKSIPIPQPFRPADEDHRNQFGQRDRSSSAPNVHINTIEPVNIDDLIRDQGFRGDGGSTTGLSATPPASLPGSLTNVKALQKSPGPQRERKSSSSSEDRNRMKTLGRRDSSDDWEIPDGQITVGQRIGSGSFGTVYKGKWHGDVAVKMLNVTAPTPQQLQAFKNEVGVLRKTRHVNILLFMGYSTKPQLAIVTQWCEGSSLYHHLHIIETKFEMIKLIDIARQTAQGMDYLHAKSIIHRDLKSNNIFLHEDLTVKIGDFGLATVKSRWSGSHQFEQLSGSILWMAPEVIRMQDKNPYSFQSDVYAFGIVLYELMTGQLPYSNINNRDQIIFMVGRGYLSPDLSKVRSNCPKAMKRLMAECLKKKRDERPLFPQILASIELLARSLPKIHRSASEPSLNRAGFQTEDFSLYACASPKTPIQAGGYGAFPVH
pIC50: −log10 of the molar value.
parameter measured: pIC50

Note pIC50 for the compound shown: CC(C)(C)c1ccc(C(=O)Nc2cn3cc(-n4ccnc4)ccc3n2)cc1 < 5.00

----------
pIC50: −log10 of the molar value.
parameter measured: pIC50

Give the observed pIC50 of CC(C)(C)c1ccc(C(=O)Nc2cn3cc(-n4ccnc4)ccc3n2)cc1 for UniProtKB Q04759. < 5.00

----------
Target: Inhibitor of nuclear factor kappa-B kinase subunit beta (Homo sapiens, UniProt O14920)
Sequence (O14920 whole entry): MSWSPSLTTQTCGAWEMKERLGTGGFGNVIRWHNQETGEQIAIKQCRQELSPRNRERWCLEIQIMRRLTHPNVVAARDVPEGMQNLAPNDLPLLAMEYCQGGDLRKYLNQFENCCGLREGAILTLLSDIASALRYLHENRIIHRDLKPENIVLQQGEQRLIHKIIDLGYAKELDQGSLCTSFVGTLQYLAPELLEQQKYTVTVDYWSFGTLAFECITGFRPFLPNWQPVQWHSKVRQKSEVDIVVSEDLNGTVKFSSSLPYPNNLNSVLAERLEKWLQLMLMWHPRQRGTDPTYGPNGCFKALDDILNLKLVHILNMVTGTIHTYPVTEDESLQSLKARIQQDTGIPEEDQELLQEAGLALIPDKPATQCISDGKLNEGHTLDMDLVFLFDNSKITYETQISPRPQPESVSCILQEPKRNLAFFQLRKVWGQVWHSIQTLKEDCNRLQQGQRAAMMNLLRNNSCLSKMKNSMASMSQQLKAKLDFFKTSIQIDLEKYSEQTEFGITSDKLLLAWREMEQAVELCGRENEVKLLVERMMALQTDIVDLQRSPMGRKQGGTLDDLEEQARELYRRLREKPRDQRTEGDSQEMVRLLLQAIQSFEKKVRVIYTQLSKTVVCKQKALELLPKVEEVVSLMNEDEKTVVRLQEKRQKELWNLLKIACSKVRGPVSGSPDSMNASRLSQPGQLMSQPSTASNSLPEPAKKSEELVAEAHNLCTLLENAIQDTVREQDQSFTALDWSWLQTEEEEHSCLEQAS
Assay: Inhibition of IKKbeta
parameter measured: IC50

Note IC50 for the compound shown: CC(C)(C)c1ccc(C(=O)Nc2cn3cc(-n4ccnc4)ccc3n2)cc1 > 10 µM

----------
Molecular target: Mitogen-activated protein kinase kinase kinase 6 (Homo sapiens)
Test: Inhibition of ASK2
parameter measured: pIC50
Please treat pIC50 as minus the base-10 logarithm of the molar concentration.

Note pIC50 for the molecule shown: CC(C)(C)c1ccc(C(=O)Nc2cn3cc(-n4ccnc4)ccc3n2)cc1 6.29

----------
Molecular target: Mitogen-activated protein kinase 8 (Homo sapiens, UniProt P45983)
Sequence (P45983 whole entry): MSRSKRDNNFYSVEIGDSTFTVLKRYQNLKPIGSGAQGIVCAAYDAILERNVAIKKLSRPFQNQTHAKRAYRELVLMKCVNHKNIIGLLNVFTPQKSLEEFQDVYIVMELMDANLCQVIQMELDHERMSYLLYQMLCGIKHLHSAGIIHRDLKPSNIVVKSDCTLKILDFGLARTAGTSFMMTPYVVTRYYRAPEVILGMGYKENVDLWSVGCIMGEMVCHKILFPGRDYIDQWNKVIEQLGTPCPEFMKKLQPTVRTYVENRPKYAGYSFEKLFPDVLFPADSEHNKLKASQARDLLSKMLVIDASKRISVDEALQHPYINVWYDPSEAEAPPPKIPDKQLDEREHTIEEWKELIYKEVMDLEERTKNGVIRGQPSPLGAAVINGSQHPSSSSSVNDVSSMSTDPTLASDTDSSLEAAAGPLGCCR
Assay: Inhibition of JNK1
pIC50: −log10 of the molar value.
parameter measured: pIC50

Give the observed pIC50 of CC(C)(C)c1ccc(C(=O)Nc2cn3cc(-n4ccnc4)ccc3n2)cc1 for Mitogen-activated protein kinase 8 (Homo sapiens, UniProt P45983). < 5.00

----------
Answer each item with its documented IC50.
Target: Mitogen-activated protein kinase kinase kinase 5 (Homo sapiens, UniProt Q99683)
Sequence (Q99683 whole entry): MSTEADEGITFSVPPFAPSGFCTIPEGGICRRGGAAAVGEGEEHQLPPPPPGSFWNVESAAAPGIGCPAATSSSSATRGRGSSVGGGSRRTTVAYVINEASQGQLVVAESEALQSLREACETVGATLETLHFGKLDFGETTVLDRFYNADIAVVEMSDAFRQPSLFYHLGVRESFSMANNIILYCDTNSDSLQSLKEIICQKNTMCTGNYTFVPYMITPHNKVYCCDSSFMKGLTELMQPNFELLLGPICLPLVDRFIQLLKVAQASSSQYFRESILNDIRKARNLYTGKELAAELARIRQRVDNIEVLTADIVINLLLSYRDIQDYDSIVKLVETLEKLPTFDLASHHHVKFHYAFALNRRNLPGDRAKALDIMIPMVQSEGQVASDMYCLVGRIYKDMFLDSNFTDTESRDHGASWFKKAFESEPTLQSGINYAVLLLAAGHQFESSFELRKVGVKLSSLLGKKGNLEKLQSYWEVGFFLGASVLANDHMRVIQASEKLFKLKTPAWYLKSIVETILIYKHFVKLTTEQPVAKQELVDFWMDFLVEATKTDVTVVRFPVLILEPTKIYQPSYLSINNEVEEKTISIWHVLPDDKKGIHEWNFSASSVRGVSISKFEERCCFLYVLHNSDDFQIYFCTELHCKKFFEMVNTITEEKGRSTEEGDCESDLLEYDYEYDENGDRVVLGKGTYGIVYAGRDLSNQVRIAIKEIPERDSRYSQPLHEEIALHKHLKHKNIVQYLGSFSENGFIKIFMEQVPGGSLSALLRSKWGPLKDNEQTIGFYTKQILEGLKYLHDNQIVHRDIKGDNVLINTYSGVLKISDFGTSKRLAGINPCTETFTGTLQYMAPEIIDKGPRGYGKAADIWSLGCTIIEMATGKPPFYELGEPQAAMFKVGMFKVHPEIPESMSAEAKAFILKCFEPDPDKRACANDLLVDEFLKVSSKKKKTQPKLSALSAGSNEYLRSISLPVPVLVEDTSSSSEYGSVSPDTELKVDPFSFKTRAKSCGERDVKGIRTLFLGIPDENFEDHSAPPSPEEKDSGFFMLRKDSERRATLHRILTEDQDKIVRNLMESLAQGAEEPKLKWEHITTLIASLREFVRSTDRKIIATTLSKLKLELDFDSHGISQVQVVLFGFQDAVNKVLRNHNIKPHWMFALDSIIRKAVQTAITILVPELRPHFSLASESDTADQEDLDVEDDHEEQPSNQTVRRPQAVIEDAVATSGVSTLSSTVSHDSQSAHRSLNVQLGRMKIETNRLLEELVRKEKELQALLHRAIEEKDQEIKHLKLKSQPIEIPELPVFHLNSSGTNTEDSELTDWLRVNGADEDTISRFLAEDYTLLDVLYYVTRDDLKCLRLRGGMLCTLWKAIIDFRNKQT
Assay: Competitive inhibition of human recombinant N-terminal FLAG-tagged ASK1 expressed in baculovirus infected […] cells after 60 mins by scintillation counting analysis in presence of [gamma-33P]ATP
Field: numeric (nM). Do not append units.

Note IC50 for the compound shown: CC(C)(C)c1ccc(C(=O)Nc2cn3cc(CO)ccc3n2)cc1 129

Note IC50 for the compound shown: Cc1ccc2nc(NC(=O)c3ccc(C(C)(C)C)cc3)sc2c1 260

Note IC50 for the compound shown: CC(C)(CO)c1ccc(C(=O)Nc2cn3cc(-n4ccnc4)ccc3n2)cc1 32

Note IC50 for the compound shown: CC(C)(C)c1ccc(C(=O)Nc2cn3cc(F)ccc3n2)cc1 34

Note IC50 for the compound shown: CC(C)(C)c1ccc(C(=O)Nc2cn3cc(-c4ccccc4)ccc3n2)cc1 82

Note IC50 for the compound shown: CC(C)(C)c1ccc(C(=O)Nc2cn3cc(Cl)ccc3n2)cc1 16

Note IC50 for the compound shown: CC(C)(C)c1ccc(C(=O)Nc2cn3cc(-c4cccnc4)ccc3n2)cc1 21

Note IC50 for the compound shown: CC(C)(C)c1ccc(C(=O)Nc2cn3cc(Br)ccc3n2)cc1 21

Note IC50 for the compound shown: CC(C)(O)c1ccc(C(=O)Nc2cn3cc(-n4ccnc4)ccc3n2)cc1 70

Note IC50 for the compound shown: CC(C)(C)c1ccc(C(=O)Nc2cn3cc(-n4cccc4)ccc3n2)cc1 30

Note IC50 for the compound shown: CNCc1ccc2nc(NC(=O)c3ccc(C(C)(C)C)cc3)cn2c1 870

Note IC50 for the compound shown: Cc1ccc2nc(NC(=O)c3ccc(C(C)(C)C)cc3)cn2c1 22

----------
Molecular target: Mitogen-activated protein kinase 14 (Homo sapiens)
Sequence (Q16539 whole entry): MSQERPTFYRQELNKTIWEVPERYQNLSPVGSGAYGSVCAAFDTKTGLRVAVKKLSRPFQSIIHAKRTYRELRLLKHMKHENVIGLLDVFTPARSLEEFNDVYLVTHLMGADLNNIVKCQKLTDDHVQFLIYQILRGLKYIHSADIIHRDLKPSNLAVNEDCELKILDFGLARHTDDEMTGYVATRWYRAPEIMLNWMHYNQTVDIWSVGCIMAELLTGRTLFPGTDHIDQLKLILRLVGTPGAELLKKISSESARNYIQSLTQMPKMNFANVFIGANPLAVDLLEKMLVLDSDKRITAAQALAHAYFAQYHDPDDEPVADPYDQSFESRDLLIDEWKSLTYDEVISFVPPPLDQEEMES
Assay: Inhibition of p38alpha
pIC50: −log10 of the molar value.
parameter measured: pIC50

Note pIC50 for the compound shown: CC(C)(C)c1ccc(C(=O)Nc2cn3cc(-n4ccnc4)ccc3n2)cc1 < 5.00

----------
Target: Mitogen-activated protein kinase 3 (Homo sapiens, UniProt P27361)
Sequence (P27361 whole entry): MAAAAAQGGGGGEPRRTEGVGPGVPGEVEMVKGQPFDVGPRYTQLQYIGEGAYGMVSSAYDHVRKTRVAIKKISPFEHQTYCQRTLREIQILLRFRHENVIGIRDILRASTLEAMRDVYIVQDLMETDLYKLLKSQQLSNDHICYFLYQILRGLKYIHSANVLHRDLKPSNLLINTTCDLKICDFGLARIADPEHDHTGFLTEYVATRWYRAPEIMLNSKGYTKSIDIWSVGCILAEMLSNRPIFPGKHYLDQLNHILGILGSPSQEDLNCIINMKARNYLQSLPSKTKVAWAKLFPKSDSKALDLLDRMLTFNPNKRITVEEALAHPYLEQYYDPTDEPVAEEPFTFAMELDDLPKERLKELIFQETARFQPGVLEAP
Assay: Inhibition of ERK1
pIC50: −log10 of the molar value.
parameter measured: pIC50

Note pIC50 for the compound shown: CC(C)(C)c1ccc(C(=O)Nc2cn3cc(-n4ccnc4)ccc3n2)cc1 < 5.00

----------
Assay: physchem
Conditions: buffer, pH 7.4
Description: Lipophilicity, log D of the compound at pH 7.4
Answer each item with its documented logD.

Note logD for the compound shown: CNCc1ccc2nc(NC(=O)c3ccc(C(C)(C)C)cc3)cn2c1 2.4

Note logD for the compound shown: CC(C)(C)c1ccc(C(=O)Nc2cn3cc(F)ccc3n2)cc1 3.55

Note logD for the compound shown: Cc1ccc2nc(NC(=O)c3ccc(C(C)(C)C)cc3)sc2c1 5.08

Note logD for the compound shown: CC(C)(C)c1ccc(C(=O)Nc2cn3cc(-n4ccnc4)ccc3n2)cc1 3.16

Note logD for the compound shown: CC(C)(C)c1ccc(C(=O)Nc2cn3cc(Br)ccc3n2)cc1 4.17

Note logD for the compound shown: Cc1ccc2nc(NC(=O)c3ccc(C(C)(C)C)cc3)cn2c1 3.78

Note logD for the compound shown: CC(C)(C)c1ccc(C(=O)Nc2cn3cc(Cl)ccc3n2)cc1 4.04

Note logD for the compound shown: CC(C)(O)c1ccc(C(=O)Nc2cn3cc(-n4ccnc4)ccc3n2)cc1 1.27

Note logD for the compound shown: CC(C)(C)c1ccc(C(=O)Nc2cn3cc(-c4cccnc4)ccc3n2)cc1 3.6

Note logD for the compound shown: CC(C)(C)c1ccc(C(=O)Nc2cn3cc(-c4ccccc4)ccc3n2)cc1 4.83

Note logD for the compound shown: CC(C)(CO)c1ccc(C(=O)Nc2cn3cc(-n4ccnc4)ccc3n2)cc1 1.62

Note logD for the compound shown: CC(C)(C)c1ccc(C(=O)Nc2cn3cc(CO)ccc3n2)cc1 2.83
